assay: Inhibition of baker's yeast alpha-glucosidase using p-nitrophenyl-alpha-D-glucopyranoside substrate assessed as inhibition constant for enzyme-substrate-compound binding by measuring reduction in p-nitrophenolate formation
Catalogue of Ki values
Reply numerically in µM, unit not repeated.

Oc1cc(/C=N/NC(=S)Nc2ccccc2)cc(O)c1O    86.2

For reference, reported Ki for Oc1cc(/C=N/NC(=[Se])Nc2ccccc2)cc(O)c1O stands at 78.4

For reference, reported Ki for Oc1cc(O)c(/C=N/NC(=[Se])Nc2cccc3ccccc23)cc1O stands at 76.8

---

assay: Inhibition of baker's yeast alpha-glucosidase using p-nitrophenyl-alpha-D-glucopyranoside substrate assessed as reduction in p-nitrophenolate formation at 500 uM; conditions: Saccharomyces bayanus
Activity calls are given as the source filed them. No cut-off for these calls is given here.
measured quantity: inhibition

Solved cases below.
Oc1ccc(/C=N/NC(=[Se])Nc2ccccc2)cc1    62%
Oc1ccc(/C=N/NC(=[Se])Nc2ccccc2)cc1O    81%
O=Cc1cc(O)c(O)c(O)c1    inactive
Oc1ccc(/C=N/NC(=[Se])Nc2cccc3ccccc23)cc1O    95%
NNC(=[Se])Nc1cccc2ccccc12    14%
Oc1cc(O)c(/C=N/NC(=[Se])Nc2cccc3ccccc23)cc1O    95%

For reference, reported inhibition for O=Cc1cc(O)c(O)cc1O stands at inactive

For reference, reported inhibition for Oc1ccc(/C=N/NC(=S)Nc2ccccc2)cc1O stands at 68%

For reference, reported inhibition for Oc1ccc(/C=N/NC(=S)Nc2ccccc2)cc1 stands at 52%

For reference, reported inhibition for O=Cc1ccc(O)cc1 [4-HYDROXYBENZALDEHYDE] stands at inactive

For reference, reported inhibition for Oc1cc(O)c(/C=N/NC(=S)Nc2ccccc2)cc1O stands at 100%

For reference, reported inhibition for Oc1ccc(/C=N/NC(=[Se])Nc2cccc3ccccc23)cc1 stands at 100%

For reference, reported inhibition for Oc1cc(/C=N/NC(=[Se])Nc2ccccc2)cc(O)c1O stands at 95%
